Below is a list of entries, each paired with its recorded binding signal value.
# TEST TARGET: dAsCas12a S542R (Acidaminococcus sp., UniProt U2UMQ6 1-1307, S542R;D908A;E993A;D1235A)
# MEASUREMENT NOTES: Spec-seq (native PAGE EMSA with sequencing of bound and unbound); 25 mM Tris-HCl pH 7.4, 150 mM KCl, 5 mM MgCl2, 10% glycerol, 1 mM DTT, 40 ng/uL salmon sperm DNA; 400 nM Cas12a, 480 nM crRNA, 50 nM library, 37 C 1 h; native PAGE at room temperature; high values mean tight binding;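 note: relative affinity from the bound to unbound sequence frequency ratio in Spec-seq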
# CONDITIONS: protein: recombinant
Respond with the bare value in lnKA.

CTGA (dsDNA) DNA 1: GCTATCTAGTGCTCAGTACGCACTGCTGAAGGAAACTTCTGGCAGGACCAGGTCATGAGATCGGAAGAGCACACGTCTGAACTCCAGTCA DNA 2: TGACTGGAGTTCAGACGTGTGCTCTTCCGATCTCATGACCTGGTCCTGCCAGAAGTTTCCTTCAGCAGTGCGTACTGAGCACTAGATAGC RNA: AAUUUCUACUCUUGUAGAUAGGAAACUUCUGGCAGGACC :: -8.41
CATA (dsDNA) DNA 1: GCTATCTAGTGCTCAGTACGCACTGCATAAGGAAACTTCTGGCAGGACCAGGTCATGAGATCGGAAGAGCACACGTCTGAACTCCAGTCA DNA 2: TGACTGGAGTTCAGACGTGTGCTCTTCCGATCTCATGACCTGGTCCTGCCAGAAGTTTCCTTATGCAGTGCGTACTGAGCACTAGATAGC RNA: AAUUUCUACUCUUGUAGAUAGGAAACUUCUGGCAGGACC :: -8.31
TGGT (dsDNA) DNA 1: GCTATCTAGTGCTCAGTACGCACTGTGGTAGGAAACTTCTGGCAGGACCAGGTCATGAGATCGGAAGAGCACACGTCTGAACTCCAGTCA DNA 2: TGACTGGAGTTCAGACGTGTGCTCTTCCGATCTCATGACCTGGTCCTGCCAGAAGTTTCCTACCACAGTGCGTACTGAGCACTAGATAGC RNA: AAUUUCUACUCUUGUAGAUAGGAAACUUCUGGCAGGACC :: -8.26
GTGG (dsDNA) DNA 1: GCTATCTAGTGCTCAGTACGCACTGGTGGAGGAAACTTCTGGCAGGACCAGGTCATGAGATCGGAAGAGCACACGTCTGAACTCCAGTCA DNA 2: TGACTGGAGTTCAGACGTGTGCTCTTCCGATCTCATGACCTGGTCCTGCCAGAAGTTTCCTCCACCAGTGCGTACTGAGCACTAGATAGC RNA: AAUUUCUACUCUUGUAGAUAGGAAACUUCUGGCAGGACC :: -8.13
TCCT (dsDNA) DNA 1: GCTATCTAGTGCTCAGTACGCACTGTCCTAGGAAACTTCTGGCAGGACCAGGTCATGAGATCGGAAGAGCACACGTCTGAACTCCAGTCA DNA 2: TGACTGGAGTTCAGACGTGTGCTCTTCCGATCTCATGACCTGGTCCTGCCAGAAGTTTCCTAGGACAGTGCGTACTGAGCACTAGATAGC RNA: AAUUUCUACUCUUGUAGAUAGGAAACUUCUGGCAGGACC :: -5.43
AAAG (dsDNA) DNA 1: GCTATCTAGTGCTCAGTACGCACTGAAAGAGGAAACTTCTGGCAGGACCAGGTCATGAGATCGGAAGAGCACACGTCTGAACTCCAGTCA DNA 2: TGACTGGAGTTCAGACGTGTGCTCTTCCGATCTCATGACCTGGTCCTGCCAGAAGTTTCCTCTTTCAGTGCGTACTGAGCACTAGATAGC RNA: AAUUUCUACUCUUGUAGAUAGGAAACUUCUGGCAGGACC :: -8.45

# input Look up binding signal for this binder: ATAG (dsDNA) DNA 1: GCTATCTAGTGCTCAGTACGCACTGATAGAGGAAACTTCTGGCAGGACCAGGTCATGAGATCGGAAGAGCACACGTCTGAACTCCAGTCA DNA 2: TGACTGGAGTTCAGACGTGTGCTCTTCCGATCTCATGACCTGGTCCTGCCAGAAGTTTCCTCTATCAGTGCGTACTGAGCACTAGATAGC RNA: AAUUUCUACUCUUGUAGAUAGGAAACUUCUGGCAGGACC
# output -8.31

# input Look up binding signal for this binder: ATGA (dsDNA) DNA 1: GCTATCTAGTGCTCAGTACGCACTGATGAAGGAAACTTCTGGCAGGACCAGGTCATGAGATCGGAAGAGCACACGTCTGAACTCCAGTCA DNA 2: TGACTGGAGTTCAGACGTGTGCTCTTCCGATCTCATGACCTGGTCCTGCCAGAAGTTTCCTTCATCAGTGCGTACTGAGCACTAGATAGC RNA: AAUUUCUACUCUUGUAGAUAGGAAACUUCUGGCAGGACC
# output -7.95

# input Look up binding signal for this binder: AATG (dsDNA) DNA 1: GCTATCTAGTGCTCAGTACGCACTGAATGAGGAAACTTCTGGCAGGACCAGGTCATGAGATCGGAAGAGCACACGTCTGAACTCCAGTCA DNA 2: TGACTGGAGTTCAGACGTGTGCTCTTCCGATCTCATGACCTGGTCCTGCCAGAAGTTTCCTCATTCAGTGCGTACTGAGCACTAGATAGC RNA: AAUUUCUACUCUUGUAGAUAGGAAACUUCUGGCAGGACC
# output -8.21

# input Look up binding signal for this binder: TCGT (dsDNA) DNA 1: GCTATCTAGTGCTCAGTACGCACTGTCGTAGGAAACTTCTGGCAGGACCAGGTCATGAGATCGGAAGAGCACACGTCTGAACTCCAGTCA DNA 2: TGACTGGAGTTCAGACGTGTGCTCTTCCGATCTCATGACCTGGTCCTGCCAGAAGTTTCCTACGACAGTGCGTACTGAGCACTAGATAGC RNA: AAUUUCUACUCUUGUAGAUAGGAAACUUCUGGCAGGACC
# output -8.35

The origin of these recorded values is paper PMC8222333.
